Please provide measured IC50 for the entries that follow.
# Assayed System: Hypoxia-inducible factor 1-alpha (Homo sapiens)
# Protocol Summary: HIF-2a and HIF-1a reporter inhibition panel, dose response, selectivity assay for HIF-2a inhibitor project, cell-based, luminescence (AID 651581)
# Measurement Conditions: HIF-1a, run 1
# number only, unit µM dropped from output

QUERY: Find the measured IC50: item "CCOC(=O)c1c(C)nn(-c2ccc(NC(=O)c3c(C)noc3C)cc2)c1C" , target or system Hypoxia-inducible factor 1-alpha (Homo sapiens).
RESULT: 10.2

QUERY: Try this compound next: "COCCn1c(C)cc(C(=O)CSc2nnc(C)s2)c1C"
RESULT: 8.55

QUERY: Same for "O=C(NNc1nc2ccccc2o1)c1ccccc1"
RESULT: 46.1

QUERY: Please answer likewise for "Cc1nnnn1/C(=C\c1ccccc1)C(=O)OCC(=O)Nc1ccc(Cl)cc1F"
RESULT: 16

QUERY: Proceed to "CNC(=O)NC(=O)COC(=O)CCCSc1nc2ccccc2s1"
RESULT: 6.15

QUERY: Try "FC(F)(F)c1cnc(NNC(=S)Nc2ccccc2)c(Cl)c1" next.
RESULT: 13.9

QUERY: Moving on to the next compound: "N=c1nc(SCCC(=O)O)ss1"
RESULT: 7.84

QUERY: Try the compound Cc1nc2cc(-c3cccc(F)c3)nn2c(C)c1CCC(=O)NC(C)c1ccc2c(c1)OCCO2 (stereo not given)
RESULT: 19.2

QUERY: Try this compound next: "Nc1ccc(-c2ncc(-c3ccccc3)o2)cc1"
RESULT: 52.5

QUERY: Okay, and "O=C1C=C(c2ccccc2)C(=O)N1Nc1ccccc1" ?
RESULT: 76

QUERY: Next: "NNC(=O)COc1ccc(-c2nccc(-c3ccc(F)cc3)n2)cc1"
RESULT: 3.37

QUERY: Now give it for "CCOC(=O)Cc1csc(NC(=S)NC(=O)c2ccc(F)cc2)n1" too.
RESULT: 13.5

QUERY: Follow-up entry: "Cc1ccc(NC(=O)c2cc(N3C(=O)C=CC3=O)ccc2N2CCOCC2)cc1"
RESULT: 64.3

QUERY: Now consider "COc1cccc(C(=O)C(C#N)=C(SC)SC)c1" .
RESULT: 23.4

QUERY: Another: "O=C1C=CC(=O)N1c1cccc(-c2ccccc2)c1"
RESULT: 26.2

QUERY: Try "NCCN1C(=O)S/C(=C\c2ccc3c(c2)OCO3)C1=O" next.
RESULT: 6.19

QUERY: Now consider "CC(C)(C)c1ccc(-c2noc(CCC(=O)Nc3cccnc3)n2)cc1" and answer again.
RESULT: 78.9

QUERY: Please do the same for COc1ccccc1C(C[N+](=O)[O-])c1c(N)n(C)c(=O)n(C)c1=O (stereo not given) as well.
RESULT: 20.9

QUERY: And for "O=C(c1ccccc1)N1CCSc2sccc2C1=O" ?
RESULT: 57.6

QUERY: Again, but for "COc1cc(N2C(=O)C=CC2=O)c(OC)cc1Cl"
RESULT: 33.2

QUERY: Item: "O=C1C=C(c2ccc(Cl)cc2)C(=O)N1Nc1ccccc1"
RESULT: 22.8
